Hi there, I'd appreciate the recorded GI50 for every entry that follows.
- System: NCI-H23
- protocol_notes: NCI tumour cell line growth inhibition, 48 h
Calls of active or inactive are those of the source. No stated cut-off is given here; in the data, active = GI50 up to about 1.1 µM and inactive = higher.

Input line: What value of measured GI50 is listed for `Clc1cc(Cl)ncn1` ?
Output line: > 100 µM (inactive)

Input line: Return reported GI50; argument: `CN(C)Cc1cc(C(C)(C)C)cc(C2CCCCC2)c1O`
Output line: 24.9 µM (inactive)

Input line: Item under review: `COc1cc(S(=O)(=O)Nc2ccc(-c3csc(/N=C\C=C\c4ccccc4)n3)cc2)ccc1Cl` . Reported GI50?
Output line: 30.9 µM (inactive)

Input line: # lookup: GI50 of O=C1C2C(C(=O)N1c1ccccc1)C1c3ccccc3C2C2C(=O)N(c3ccccc3)C(=O)C21 (configuration not stated)
Output line: 18.5 µM (inactive)

Input line: Give its GI50 value. Item: c1ccc2c(c1)N=c1cc3c(cc1N2)=NC12CCCCC1CC1=C(CCCC1)N32 (configuration not stated)
Output line: 4.56 µM (inactive)

Input line: Please look up its GI50: `CCOC(=O)c1c(SC)nc(-c2ccc(Cl)cc2)sc1=N.[O-][Cl+3]([O-])([O-])O`
Output line: 22.6 µM (inactive)

Input line: GI50 lookup needed for CC(C)(C)C1CCC2c3c([nH]c4ccccc34)C3C(=O)N(c4ccc(C(=O)O)cc4)C(=O)C3C2C1 (configuration not stated) , thanks.
Output line: 17.7 µM (inactive)

Input line: Which GI50 is reported for this molecule? `COC(=O)[C@@H]1CCc2nc3ccccc3c(=O)n21`
Output line: > 100 µM (inactive)

Input line: // lookup GI50 for C1=C(c2ccccc2)SC(N2CCCCC2)S1 (configuration not stated)
Output line: > 100 µM (inactive)

Input line: Can you share its GI50? I mean this molecule: `Cc1cc(C)c2c(=O)cc(-c3ccccc3)[nH]c2c1`
Output line: 2.66 µM (inactive)

Input line: What does the data say about its GI50? Entry: `CC(C)(C)/N=C/N1C=Cc2nc3ccccc3cc2C1`
Output line: > 100 µM (inactive)

Input line: # lookup: GI50 of C/C(=C/CC[C@]1(CO)CC[C@]2(CO)[C@H](CC[C@@H]3[C@@]4(C)CC[C@H](OC5OCC(O)C(O)C5OC5OC(CO)C(O)C(O)C5O)C(C)(C)[C@@H]4CC[C@]32C)[C@H]1O)CO (some centres not stated)
Output line: > 100 µM (inactive)

Input line: Can you look up the measured GI50 of CSC(=O)C[C@@]12O[C@@H]([C@@H](C)C3CCC4[C@@H]5C(O)CC6=CC(=O)C=C[C@]6(C)C5CC[C@@]43C)C[C@](C)(O1)C(C)(C)O2 (some centres not stated) for me?
Output line: > 10 µM (inactive)

Input line: What value of GI50 has been reported for the following molecule? `CCCC(CCC)C(=O)O`
Output line: > 100 µM (inactive)

Input line: Item under review: N#CCC12CC=CCC1=C(O)C(=O)c1ccc(O)cc12 (configuration not stated) . Reported GI50?
Output line: > 100 µM (inactive)

Input line: Returns the measured GI50 for the input molecule. Input: `CP(C)(=S)P(C)(C)=S`
Output line: > 100 µM (inactive)

Input line: Entry `CN(C)CCNc1ccc([N+](=O)[O-])c2sc3ccccc3c(=O)c12` has what GI50?
Output line: 4.16 µM (inactive)

Input line: Param item = COC(=O)[C@]1(C)CCC[C@@]2(C)C1CC[C@]13C=C(C(C)C)[C@H](CC21)CC3(Cl)C#N (some centres not stated) ; retrieve measured GI50.
Output line: 59.8 µM (inactive)

Input line: Fill in the blank: the reported GI50 of O=C1CC2=CCCC2O1 (configuration not stated) is ____.
Output line: > 100 µM (inactive)

Input line: I would be grateful if you could share the reported GI50 for Nc1ccn(CC(CO)CC(c2ccccc2)P(=O)(O)O)c(=O)n1 (configuration not stated) .
Output line: > 100 µM (inactive)

Input line: GI50 for `CCOC(=O)Nn1cnnc1C` ?
Output line: > 100 µM (inactive)

Input line: Form field: reported GI50 of O=C1c2ccccc2C2(c3ccc(Cl)cc3)NCc3ccccc3CN12 (configuration not stated)
Output line: 17.7 µM (inactive)

Input line: For the molecule shown here, `O=C1/C(=C/c2ccc(O)cc2)NC(=S)N1CN1CCCCC1` , give the reported GI50.
Output line: > 100 µM (inactive)

Input line: // GI50 lookup, key: `Cc1ccc(-n2c(O)c(C#N)c3[nH]nc(N)c3c2=O)cc1`
Output line: > 100 µM (inactive)

Input line: State the recorded GI50 for this entry: N#CC1C(=S)NC(c2ccccc2)=CC12CCCCC2 (configuration not stated)
Output line: 15.7 µM (inactive)

Input line: Item `CC1(C)C=Cc2c(cc3oc4ccc5c(c4c(=O)c3c2O)C=CC(C)(C)O5)O1` has what recorded GI50?
Output line: > 100 µM (inactive)

Input line: Tell me the measured GI50 of `CCCCc1nccc2c(C)c3[nH]c4ccccc4c3cc12` , please.
Output line: 3.66 µM (inactive)

Input line: Consider the molecule shown here: N=C(N)NC(CC(=O)O)c1ccccc1 (configuration not stated) What is its recorded GI50?
Output line: > 100 µM (inactive)

Input line: May I ask what GI50 has been recorded for NC(C(=O)O)c1cc(O)no1 (configuration not stated) ?
Output line: > 100 µM (inactive)

Input line: Which value of GI50 has been reported for CC1(C)Oc2ccccc2N2O[C@@H]3C(=O)N(c4ccccc4)C(=O)[C@@H]3C21c1ccccc1 (some centres not stated) in the records?
Output line: 97.7 µM (inactive)

Input line: Reported GI50 for C=CCn1c2c(sc1=S)C(S)NC=N2 (configuration not stated) : what is it?
Output line: 90.6 µM (inactive)

Input line: Which GI50 reading was recorded for the molecule `Cc1ccc(S(=O)(=O)Oc2cc(-c3ccccc3)nc3ccccc23)cc1` ?
Output line: 2.53 µM (inactive)

Input line: I'd like to know its GI50. The molecule in question is `N#CCCC1(CCC#N)CCCCCCC(CCC#N)(CCC#N)C(=O)C1=O`
Output line: > 100 µM (inactive)

Input line: What does the data say about its GI50? Entry: NC1Cc2ccccc2OC1=O (configuration not stated)
Output line: > 100 µM (inactive)

Input line: Data request, read-out GI50, for `O=C(CCc1nnc2s/c(=C\c3ccccc3Cl)c(=O)n12)Nc1cc(Cl)ccc1Cl`
Output line: > 100 µM (inactive)

Input line: Quick one: GI50 of `O=C(NCCN(CCNC(=O)c1cccc(=O)n1O)CCNC(=O)c1cccc(=O)n1O)c1cccc(=O)n1O` ?
Output line: > 100 µM (inactive)

Input line: Quick one: GI50 for `O=S1(=O)C(=C(c2ccccc2)c2ccccc2)S(=O)(=O)c2ccccc21` ?
Output line: > 63.2 µM (inactive)

Input line: I'd like to know its GI50. The molecule in question is COC(=O)C1=NN2c3ccccc3C(=O)OCCC2C1 (configuration not stated)
Output line: > 100 µM (inactive)

Input line: I'd like to know its GI50. The molecule in question is Nc1ncc2c(n1)-c1ccccc1OC2N1CCCCC1 (configuration not stated)
Output line: > 100 µM (inactive)

Input line: Requested read-out: GI50. Entry: `O=S1(=O)OCCOS(=O)(=O)C1(Br)Br`
Output line: > 100 µM (inactive)

Input line: Data request, read-out GI50, for `CCOC(=O)/C(C(=O)Nc1cccc(Cl)c1)=C(/N)N1CCCC1`
Output line: > 100 µM (inactive)

Input line: Endpoint output: GI50 of `Cc1ccc(C)c(/C(=N\N=C(N)N)C2CC2)c1` . Value?
Output line: 20.7 µM (inactive)
